Hey, just so you know, these numbers are from ChEMBL document CHEMBL3867484.

system.under.test: Aldo-keto reductase family 1 member C3 (Homo sapiens, UniProt P42330)
Sequence (P42330 whole entry): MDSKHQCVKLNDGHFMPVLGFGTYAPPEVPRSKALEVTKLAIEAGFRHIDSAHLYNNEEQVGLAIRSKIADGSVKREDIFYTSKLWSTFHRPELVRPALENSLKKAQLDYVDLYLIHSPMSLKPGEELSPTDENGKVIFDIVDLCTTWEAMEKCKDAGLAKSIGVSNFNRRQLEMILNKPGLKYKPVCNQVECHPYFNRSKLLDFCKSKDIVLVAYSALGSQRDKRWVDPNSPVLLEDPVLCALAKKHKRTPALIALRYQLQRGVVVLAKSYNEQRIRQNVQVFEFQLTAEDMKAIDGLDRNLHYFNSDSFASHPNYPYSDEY
procedure.summary: Inhibition of human recombinant His-tagged AKR1C3 expressed in Escherichia coli BL21 (DE3) cells using 8-Acetyl-2,3,5,6-tetrahydro-1H,4H-11-oxa-3a-aza-benzo[de]anthracen-10-one as substrate after 1 hr in presence of NADPH by fluorescence assay
experimental.conditions: read-out: IC50
test.readout: IC50 (nM)

Look over these answered cases.
> print(dat)
                                   compound                         system.under.test  test.readout  test.value
1  O=C(O)c1cccc(S(=O)(=O)C2CCc3sccc3C2)c1 (stereo unspecified)  Aldo-keto reductase family 1 member C3 (Homo sapiens, UniProt P42330)          IC50          25
2  O=C(O)c1cccc(S(=O)(=O)C2CC=CCC2)c1 (stereo unspecified)  Aldo-keto reductase family 1 member C3 (Homo sapiens, UniProt P42330)          IC50         390

[I] O=C(NN1CCOCC1)c1cccc(S(=O)(=O)N2CCc3ccccc3C2)c1
[II] O=C(NN1CCSCC1)c1cccc(S(=O)(=O)N2CCc3ccccc3C2)c1
[III] CN1CC(c2ccc(S(=O)(=O)N3CCc4ccccc4C3)cc2)CC1=O (stereo unspecified)
[IV] O=C(O)c1cccc(S(=O)(=O)N2CCc3ccc(C#Cc4ccc(C(F)(F)F)cc4)cc3C2)c1
Query :: Please produce an ascending ranking of these compounds based on IC50. List the labels, following the order given in the request.
Result :: III, I, II, IV
